Record form. Attribute: TGI. Fill in for each entry.
tested on: NCI-H226 lung; assay: NCI tumour cell line growth inhibition, 48 h

Identify measured TGI corresponding to N#CCCC(CC#N)N1CCN(CCO)CC1 (centres undefined)
> 100 µM

Identify measured TGI corresponding to N[C@@H]1c2c(Br)sc(Br)c2[C@H](O)[C@@H]1O
> 100 µM

Identify measured TGI corresponding to N#C/C(=C/c1cccnc1)C(=O)c1ccccc1
> 100 µM

Identify measured TGI corresponding to c1ccc2c(c1)CCc1c-2n(CCN2CCCCC2)c2ccccc12
25.1 µM

Identify measured TGI corresponding to NC(=O)c1csc(C2C=CC(CO)O2)n1 (centres undefined)
> 100 µM

Identify measured TGI corresponding to C=C(CN(CC(=C)C(=O)c1ccccc1)C(C)(C)C)C(=O)c1ccccc1
48.4 µM

Identify measured TGI corresponding to c1ccc2nc3[nH]c4ccccc4c3cc2c1
18.3 µM

Identify measured TGI corresponding to CCOP(=O)(CC(=O)C1=C(O)C(CCCNC(=O)OC(C)(C)C)N(Cc2ccc(OC)c(OC)c2)C1=O)OCC (centres undefined)
> 100 µM

Identify measured TGI corresponding to CC12O[C@H](c3ccccc3)[C@H](c3ccccc3)N1C(=O)C1(C(=O)OCc3ccccc3)CC12 (some centres undefined)
> 100 µM

###

test system: HL-60(TB) leukemia; test: NCI tumour cell line growth inhibition, 48 h; in the data active = GI50 below about 0.43 µM; inactive = the rest
Reply using exactly one outcome from active, inactive

Which result was noted for this compound in the test: NC1=NC(c2ccccc2)N=C(Nc2ccccc2)N1 (configuration not stated)
inactive

Which result was noted for this compound in the test: Nc1c(C(=O)c2cccc(OCCN3CCOCC3)c2)cnn1-c1ccc(F)cc1
inactive

Which result was noted for this compound in the test: N#CC1C(=N)Cc2ccccc2-c2ccccc21 (configuration not stated)
inactive

Which result was noted for this compound in the test: C#CCN1CCN(C(=S)N/N=C(\C)c2ccccn2)CC1
active

Which result was noted for this compound in the test: COc1cc(NN=C(c2ccc(O)cc2)c2ccc(O)cc2)c([N+](=O)[O-])cc1[N+](=O)[O-]
inactive

Which result was noted for this compound in the test: COc1cc2c3c(n(CCCN)c(=O)c2cc1OC)-c1ccc(F)cc1C3=O
inactive

Which result was noted for this compound in the test: CC(C)(C)OC(=O)NCCCCCCCCn1c2c(c3ccccc3c1=O)C(=O)c1ccccc1-2
inactive

Which result was noted for this compound in the test: COc1cc(/C=C/C(=O)c2cc(F)c(Cl)cc2Cl)cc(OC)c1OC
inactive

Which result was noted for this compound in the test: O=C(Oc1ccc([N+](=O)[O-])cc1)N1CCN(Cc2cccc(Oc3ccccc3)c2)CC1
inactive

Which result was noted for this compound in the test: CN(C)CCNC(=O)c1cccc2cc3ccccc3nc12
inactive

Which result was noted for this compound in the test: CCCCCCCCOc1ccc(/C=N/Nc2cc(C)nc3ccc(Cl)cc23)cc1
inactive

Which result was noted for this compound in the test: Cc1ccc(N=C2CSc3nnc(-c4csc5c4CCCC5)n3N2)cc1
active

Which result was noted for this compound in the test: O=C1/C(=C/c2ccccc2)SC(=Nc2ccccc2)N1Nc1ccccc1
inactive

Which result was noted for this compound in the test: CN(C)c1ccc(/C=C/c2sc3ccc4ccccc4c3[n+]2C)cc1
active

Which result was noted for this compound in the test: O=C1c2cccnc2-c2nc(/C=C/c3ccccc3)cc3c2c1nc1ccccc13
inactive

Which result was noted for this compound in the test: Cn1ccc(=Nc2ccc(NC(=O)c3ccc(N=c4ccn(C)c5ccc([N+](=O)[O-])cc45)cc3)cc2)cc1
inactive

Which result was noted for this compound in the test: COc1cc2cc(Oc3ccc(NC(=O)Nc4ccccc4)cc3)c(C)nc2cc1OCCN1CCCCC1
inactive
